The reported measurements were obtained from patent EP0172321B1.

# Experiment summary: Ames test for mutagenicity, tester strain TA1538
# Format: cell-based, Salmonella typhimurium
# Condition info: ames ta1538, without purification of the dye; replicate Assay no.; read-out: TA1548 × background
Outcome measure: fold induction

Ask: GET /values?readout=fold induction&item= CN(C)c1ccc(C2=C([O-])C(=C3C=CC(=[N+](C)C)C=C3O)C2=O)c(O)c1
Result: 4.9

###

# Experiment summary: Ames test for mutagenicity, tester strain TA98
# Format: cell-based, Salmonella typhimurium
# Condition info: ames ta98, purified dye, dimethylamino phenol precursor distilled; DMSO solvent; replicate Test no./Assay no.; read-out: TA98 × background
Outcome measure: fold induction
No unit in the answer, please; the number alone is enough.

Ask: GET /values?readout=fold induction&item= CN(C)c1ccc(C2=C([O-])C(=C3C=CC(=[N+](C)C)C=C3O)C2=O)c(O)c1
Result: 2.4

###

# Experiment summary: Ames test for mutagenicity, tester strain TA1538
# Assay type: cell-based, Salmonella typhimurium
# Condition info: ames ta1538, purified dye, dimethylamino phenol precursor distilled; DMSO solvent; replicate Test no./Assay no.; read-out: TA1538 × background
Outcome measure: fold induction
No unit in the answer, please; the number alone is enough.

Ask: GET /values?readout=fold induction&item= CN(C)c1ccc(C2=C([O-])C(=C3C=CC(=[N+](C)C)C=C3O)C2=O)c(O)c1 [OHSQ]
Result: 2.9
